meta.source: patent US20230286983A1

- assay info: Pharmacokinetic study, 4ET-01-021 with IV and PO dosing
- Type: in vivo, CD-1 male mice
- experimental conditions: male, CD-1, mouse, plasma, po; orally dosed at 10 mg/kg, mean of 3 animals
observed property: half-life (h)
Return type: number; implicit unit h.

Exercise: Suppose we examine the compound CCC1=CC2(CCC1)NC(=O)c1c(C)cc(Nc3cc(N)ncn3)c(=O)n12 (stereo not shown) [Compound 4ET-01-021] ; what half-life value has been reported?
Solution: 7.44

====

- assay info: Pharmacokinetic study, 4ET-03-009 at 10 mg/kg oral
- Assay type: in vivo, CD-1 male mice
- experimental conditions: male, CD-1, mouse, plasma, oral, 10 mg/kg, 24 hours, read-out: Plasma Conc. (per mouse n = 3)
observed property: concentration at 24 h (ng/mL)
Just the number please, in ng/mL, no unit attached.

Exercise: Report concentration at 24 h for Cc1cc(Nc2cc(NC(=O)C3CC3)ncn2)c(=O)n2c1C(=O)NC21CCOCC1 please.
Solution: 1.64
